- assay-target: recombinant human VAP-1 (Homo sapiens, UniProt Q16853)
- Construct: purchased R&D systems
- Sequence (Q16853 whole entry): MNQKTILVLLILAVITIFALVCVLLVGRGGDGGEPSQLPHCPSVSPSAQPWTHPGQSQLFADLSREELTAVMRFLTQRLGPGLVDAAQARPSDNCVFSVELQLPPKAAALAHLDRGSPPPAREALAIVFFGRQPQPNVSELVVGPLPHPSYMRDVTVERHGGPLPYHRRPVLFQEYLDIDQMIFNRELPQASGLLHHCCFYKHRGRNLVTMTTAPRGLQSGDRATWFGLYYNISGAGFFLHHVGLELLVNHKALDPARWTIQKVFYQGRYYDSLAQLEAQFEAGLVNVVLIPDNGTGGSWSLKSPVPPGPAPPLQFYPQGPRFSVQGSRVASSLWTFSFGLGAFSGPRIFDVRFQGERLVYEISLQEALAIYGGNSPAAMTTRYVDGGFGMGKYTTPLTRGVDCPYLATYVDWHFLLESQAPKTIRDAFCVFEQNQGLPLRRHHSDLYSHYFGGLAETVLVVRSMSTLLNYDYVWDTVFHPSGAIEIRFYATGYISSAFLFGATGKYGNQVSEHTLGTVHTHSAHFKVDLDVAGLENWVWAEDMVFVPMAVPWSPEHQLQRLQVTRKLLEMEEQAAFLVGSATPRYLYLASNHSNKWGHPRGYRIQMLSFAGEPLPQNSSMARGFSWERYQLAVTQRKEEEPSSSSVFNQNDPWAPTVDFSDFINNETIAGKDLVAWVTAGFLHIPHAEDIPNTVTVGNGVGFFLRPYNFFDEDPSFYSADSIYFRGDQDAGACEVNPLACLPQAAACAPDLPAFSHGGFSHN
- experimental-protocol: Activity on recombinant human VAP-1, HRP-coupled Amplex Red hydrogen peroxide assay
- Format: biochemical
- run-conditions: substrate 1 mM benzylamine; compound incubated with enzyme at 37° C. for 30 minutes; pH 7.4; read-out: Inhibitory Activity (IC50, nM) human VAP-1
Structures can show the parent of a compound that is named as a salt.
quantity-kind: IC50 (nM)

>>> df
                                    compound  uom  experimental_result
 0  NC/C(=C\F)Cn1ncn(Cc2ccc(-c3cccc4cnccc34)s2)c1=O [Example 114, hydrochloride]   nM                  0.3
 1  NC/C(=C\F)Cn1ncn(Cc2ccc(C#Cc3cccnc3)s2)c1=O [Example 127, hydrochloride]   nM                  0.8
 2  N#Cc1ccc(-c2ccc(Cn3cnn(C/C(=C/F)CN)c3=O)s2)cn1 [Example 50, hydrochloride]   nM                  0.5
 3  CCn1cc(-c2ccc(Cn3cnn(C/C(=C/F)CN)c3=O)s2)ccc1=O   nM                  1.6
 4  NC/C(=C\F)Cn1ncn(Cc2ccc(-c3cnc4c(c3)CCCN4)s2)c1=O   nM                  0.6
 5  COc1ccc(-c2ccc(Cn3cnn(C/C(=C\F)CN)c3=O)s2)cn1 [Example 44, hydrochloride]   nM                  1.9
 6  NC/C(=C\F)Cn1ncn(Cc2ccc(-c3cnc(N4CCOCC4)nc3)s2)c1=O [Example 57, hydrochloride]   nM                  2.2
 7  NC/C(=C\F)Cn1ncn(Cc2ccc(-c3cccc(-c4ncon4)c3)s2)c1=O   nM                    2
 8  NC/C(=C/F)Cn1ncn(Cc2ccc(-c3ccc(C(F)(F)F)nc3)s2)c1=O [Example 48, hydrochloride]   nM                  1.6
 9  NC/C(=C\F)Cn1ncn(Cc2ccc(/C=C/c3ccsc3)s2)c1=O [Example 121, hydrochloride]   nM                  1.2
10  NC/C(=C\F)Cn1ncn(Cc2ccc(C#Cc3cnc4c(c3)OCC(=O)N4)s2)c1=O [Example 139, hydrochloride]   nM                  0.5

---

- assay-target: recombinant human VAP-1 (Homo sapiens, UniProt Q16853)
- Construct: purchased R&D systems
- experimental-protocol: Activity on recombinant human VAP-1, HRP-coupled Amplex Red hydrogen peroxide assay
- Format: biochemical
- run-conditions: substrate 1 mM benzylamine; compound incubated with enzyme at 37° C. for 30 minutes; pH 7.4; read-out: Inhibitory Activity (IC50, nM) human VAP-1
Structures can show the parent of a compound that is named as a salt.
quantity-kind: IC50 (nM)

In [3]: df
Out[3]:
                                    compound  experimental_result
 0  NC/C(=C\F)Cn1ncn(Cc2ccc(-c3cc(F)c4c(c3)CC(=O)N4)s2)c1=O [Example 71, hydrochloride]                  0.2
 1  NC/C(=C\F)Cn1ncn(Cc2ccc(C3=CCNCC3)s2)c1=O                  2.1
 2  NC/C(=C\F)Cn1ncn(Cc2ccc(-c3ccc4c(c3)CCCN4)s2)c1=O [Example 110, hydrochloride]                  0.9
 3  NC/C(=C\F)Cn1ncn(Cc2ccc(-c3csc(CO)c3)s2)c1=O                  2.5
 4  Cn1cncc1C#Cc1ccc(Cn2cnn(C/C(=C/F)CN)c2=O)s1 [Example 130, hydrochloride]                  0.5
 5  NC/C(=C\F)Cn1ncn(Cc2ccc(-c3cc(F)c4[nH]c(=O)ccc4c3)s2)c1=O [Example 82, hydrochloride]                  0.1
 6  NC/C(=C\F)Cn1ncn(Cc2ccc(Cc3ccc(OC(F)(F)F)cc3)s2)c1=O                   12
 7  NC/C(=C\F)Cn1ncn(Cc2ccc(-c3ccc(CO)cc3)s2)c1=O                  3.3
 8  CS(=O)(=O)Nc1cccc(-c2ccc(Cn3cnn(C/C(=C/F)CN)c3=O)s2)c1                  1.5
 9  NC/C(=C\F)Cn1ncn(Cc2ccc(-c3ccc4[nH]ncc4c3)s2)c1=O [Example 63, hydrochloride]                  0.9
10  NC/C(=C\F)Cn1ncn(Cc2ccc(-c3ccc4c(c3)NC(=O)CO4)s2)c1=O [Example 90, hydrochloride]                  0.4
11  COC(=O)c1cc(F)cc(-c2ccc(Cn3cnn(C/C(=C/F)CN)c3=O)s2)c1 [Example 13, hydrochloride]                  0.8
12  NC/C(=C\F)Cn1ncn(Cc2ccc(-c3cnn(Cc4ccccc4)c3)s2)c1=O                  2.7
13  NC/C(=C\F)Cn1ncn(Cc2ccc(-c3ccc(F)c(C(F)(F)F)c3)s2)c1=O [Example 15, hydrochloride]                  0.9
14  CCS(=O)(=O)c1ccc(-c2ccc(Cn3cnn(C/C(=C/F)CN)c3=O)s2)cc1                  2.3
15  NC/C(=C/F)Cn1ncn(Cc2ccc(-c3ccc(C(=O)N4CCOCC4)cc3)s2)c1=O [Example 26, hydrochloride]                  1.4
16  NC/C(=C/F)Cn1ncn(Cc2ccc(-c3ccc4c(c3)OCO4)s2)c1=O [Example 60, hydrochloride]                  1.8
17  CCn1cc(-c2ccc(Cn3cnn(C/C(=C/F)CN)c3=O)s2)cn1                  1.3
18  NC/C(=C\F)Cn1ncn(Cc2ccc(-c3cnc(N)nc3)s2)c1=O                  2.4
19  NC/C(=C\F)Cn1ncn(Cc2ccc(C#Cc3cnc4c(c3)NC(=O)CO4)s2)c1=O [Example 138, hydrochloride]                  0.2
20  CNS(=O)(=O)c1cccc(-c2ccc(Cn3cnn(C/C(=C/F)CN)c3=O)s2)c1 [Example 8, hydrochloride]                  1.2
21  NC/C(=C\F)Cn1ncn(Cc2ccc(-c3ccc4c(c3)CNC4=O)s2)c1=O [Example 68, hydrochloride]                  0.4
22  NC/C(=C\F)Cn1ncn(Cc2ccc(-c3ccc(-c4nnc[nH]4)cc3)s2)c1=O                 0.67
23  CC(=O)N1CCN(c2ccc(-c3ccc(Cn4cnn(C/C(=C/F)CN)c4=O)s3)cc2)CC1 [Example 24, hydrochloride]                  1.4
24  CN1CCNc2cc(-c3ccc(Cn4cnn(C/C(=C/F)CN)c4=O)s3)ccc21                  1.1
25  COc1ccc(C#Cc2ccc(Cn3cnn(C/C(=C/F)CN)c3=O)s2)cc1 [Example 126, hydrochloride]                  3.4
26  NC/C(=C\F)Cn1ncn(Cc2ccc(-c3ccc4c(c3)NCCO4)s2)c1=O                  1.8
27  NC/C(=C\F)Cn1ncn(Cc2ccc(-c3cccc(-c4nnc[nH]4)c3)s2)c1=O                  0.8
28  NC/C(=C/F)Cn1ncn(Cc2ccc(-c3cccc(-c4nnc[nH]4)c3)s2)c1=O                  1.2
29  NC/C(=C\F)Cn1ncn(Cc2ccc(-c3cc4c(cc3F)OCCN4)s2)c1=O                  1.5
30  NC/C(=C\F)Cn1ncn(Cc2ccc(-c3cnn(C4CCNCC4)c3)s2)c1=O                  3.8
31  NC/C(=C\F)Cn1ncn(Cc2ccc(-c3cccc(-c4noc(C5CC5)n4)c3)s2)c1=O [Example 36, hydrochloride]                  0.7
